Attribution: patent US12162850B2

experiment: Single dose oral pharmacokinetic studies in rabbits; type: in vivo, male New Zealand White rabbits; conditions: male, New Zealand White, rabbit, plasma, po, 90 mg/kg, enteric coated capsule, 90 mg/kg b.w. oral single dose, rabbit plasma (Examples 5, 6, 7)
Endpoint Name: AUC(0-t) (µg·h/mL)
API: value field is a number in µg·h/mL; no unit string.

The cases that follow already have their AUC(0-t) on record.
O=C(Nc1nc(=O)n(Cc2ccc(Cl)cc2)s1)c1ccc(Cl)cc1.[K]: 3990
O=C(Nc1nc(=O)n(Cc2ccc(Cl)cc2)s1)c1ccc(Cl)cc1: 2990

Consider the compound O=C(Nc1nc(=O)n(Cc2ccc(Cl)cc2)s1)c1ccc(Cl)cc1.[Na] and give its measured AUC(0-t).
5710
